Origin of the recorded values: the supplement of paper PMC10338343

# Test system: MIWI (PIWIL1) piRISC loaded with piRNA #1 (30 nt);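 note: 1 nM active piRISC with 0.1 nM target library at 33 °C single turnover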
# assay-comment: pre-steady-state target cleavage rate (min^-1); higher = faster piRNA-guided slicing of the target
# experimental-parameters: guide: piRNA #1 5'p-UGAGGUAGUAGGUUGUAUAGUAUCCAGAGG; auxiliary factor: 500 nM mouse GTSF1
The full ranking holds about 6,200 sequences; the median of “pre-steady-state target cleavage rate” is about 0.29, and the highest 2% start at about 2. The sample as a whole holds a higher share of the highest values than the screen did.
Tag: t if measured pre-steady-state target cleavage rate is not below 1, f if it is.

construct_sequence=GGUCUGGAUAGUAUACAACCUACUACCUGA classification=f
construct_sequence=CCUCUGAGAUACUAUACAACCUACUACCUCA classification=f
construct_sequence=GCUCUGGAUACCUAUACAACCUACUACCUCA classification=t
construct_sequence=GGAGACCUAUGUAUACCACCUACUACCUCA classification=f
construct_sequence=CCUCUGGAUACUAUACAACCUACUUACCUCA classification=t

Now for a further sequence.
Exercise: Has `GGAGUAGAUACUAUACAACCUACUACCUCA` a recorded pre-steady-state target cleavage rate greater than or equal to 1?
Key: t

* * *

Can you tell me pre-steady-state target cleavage rate for the items I'm about to list?
# Test system: MIWI (PIWIL1) piRISC loaded with piRNA #1 (30 nt);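 note: 1 nM active piRISC with 0.1 nM target library at 33 °C single turnover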
# assay-comment: pre-steady-state target cleavage rate (min^-1); MIWI and MILI are mouse PIWI proteins and EfPiwi is from a freshwater sponge; tags in brackets are library labels; higher = faster piRNA-guided slicing of the target;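 note: 1 nM active piRISC with 0.1 nM target library at 33 °C single turnover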
# experimental-parameters: guide: piRNA #1 5'p-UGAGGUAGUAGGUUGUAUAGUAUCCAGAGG; auxiliary factor: 500 nM mouse GTSF1
Whole data set: some 6,200 sequences, median “pre-steady-state target cleavage rate” near 0.29, cut for the highest 2% near 2. Shown is part of a subset that was picked to be rich in the highest values.
Answers are plain numbers.

These solved cases illustrate the format of a correct answer.
construct_sequence=CCUCGUGGAUACUAUACAACCUACUACCUCA assay_target="MIWI (PIWIL1) piRISC loaded with piRNA #1 (30 nt)" experimental_endpoint="pre-steady-state target cleavage rate" endpoint_value=2.17
construct_sequence=GCACUGGAUACUAUACAACCAACUACCUCA assay_target="MIWI (PIWIL1) piRISC loaded with piRNA #1 (30 nt)" experimental_endpoint="pre-steady-state target cleavage rate" endpoint_value=0.167
construct_sequence=GGACUGGAUACUAUACAACCUCCUACCUCA assay_target="MIWI (PIWIL1) piRISC loaded with piRNA #1 (30 nt)" experimental_endpoint="pre-steady-state target cleavage rate" endpoint_value=0.801
construct_sequence=GCUCUGGAUACUAUACAACCUCCUACCUCA assay_target="MIWI (PIWIL1) piRISC loaded with piRNA #1 (30 nt)" experimental_endpoint="pre-steady-state target cleavage rate" endpoint_value=1.2
construct_sequence=GCAGUGGAUACUAUACAACCUACUACCUCA assay_target="MIWI (PIWIL1) piRISC loaded with piRNA #1 (30 nt)" experimental_endpoint="pre-steady-state target cleavage rate" endpoint_value=1.85

Would you mind listing pre-steady-state target cleavage rate for each of the following sequences?
1. GGUCUGCUUACUAUACAACCUACUACCUCA
2. GCUCGUGGAUACUAUACAACCUACUACCUCA
3. CCUCUGGAUACUAUACAACCUCCUACCUCA
4. CCAGUGGAUACUAUACAACCUACUACCUCA
5. CCUCCUGGAUACUAUACAACCUACUACCUCA
6. GGAGACCAUAUAUACAACCUACUACCUCA

Key:
[1.74, 1.85, 1.32, 2.01, 2.25, 0.184]

Would you mind listing pre-steady-state target cleavage rate for each of the following sequences?
1. CCUCUGCUUACUAUACAACCUACUACCUCA
2. GCUCCUGGAUACUAUACAACCUACUACCUCA

Key:
1: 2.19; 2: 2.13
